Biological target: human oxytocin (hOT) receptor (Homo sapiens)
Construct: expressed in transfected cells
Sequence (P30559 1-389): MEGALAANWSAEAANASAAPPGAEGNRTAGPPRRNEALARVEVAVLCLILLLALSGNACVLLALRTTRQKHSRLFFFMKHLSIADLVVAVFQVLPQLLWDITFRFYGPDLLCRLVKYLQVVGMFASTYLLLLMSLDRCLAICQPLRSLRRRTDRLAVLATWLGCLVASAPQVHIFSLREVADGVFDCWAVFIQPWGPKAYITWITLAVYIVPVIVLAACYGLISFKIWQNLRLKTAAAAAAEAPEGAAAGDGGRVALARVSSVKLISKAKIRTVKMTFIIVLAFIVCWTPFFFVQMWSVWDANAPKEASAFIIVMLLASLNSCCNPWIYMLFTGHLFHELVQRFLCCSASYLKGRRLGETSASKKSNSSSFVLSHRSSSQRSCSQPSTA
Test: luciferase-based transcriptional reporter assay, selectivity hOT versus hV1a
Type: cell-based
Conditions: EC50 ratio
Starred links: 1 amine or outer side, 2 acyl side, 3 side chain; linkers in the order of their positions; H or OH if unused. Positions of bridges follow the written chain, without caps; N, C: chain ends. Non-standard residues stand in square brackets, D forms with d. Residues, ends and D or L forms follow the SMILES beside them. Orn(Me) = CN(CCC[C@H](N[*:1])C(=O)[*:2])[*:3]; Orn(Pr) = CCCNCCC[C@H](N)C(=O)O; 2Thi = N[C@@H](Cc1cccs1)C(=O)O; Dab = NCC[C@H](N)C(=O)O
measurement_kind: selectivity hOT/hV1a

INSERT INTO results (molecule, measurement_kind, recorded_result) VALUES
  ('CC[C@H](C)[C@@H]1NC(=O)[C@H](Cc2ccccc2)NC(=O)[C@@H](N)CSSC[C@@H](C(=O)N2CCC[C@H]2C(=O)N[C@@H](CCCNC)C(=O)NCC(N)=O)NC(=O)[C@H](CC(N)=O)NC(=O)[C@H](CCC(N)=O)NC1=O [Compound 39] (H-CFIQNCP[Orn(Me)]G-NH2; disulfide 1-6; N-terminus and C-terminus assumed)', 'selectivity hOT/hV1a', 178),
  ('CC[C@H](C)[C@@H]1NC(=O)[C@H](Cc2cccs2)NC(=O)[C@@H](N)CSSC[C@@H](C(=O)N2CCC[C@H]2C(=O)N[C@@H](CCN)C(=O)NCC(N)=O)NC(=O)[C@H](CC(N)=O)NC(=O)[C@H](CCC(N)=O)NC1=O [Compound 14] (H-C[2Thi]IQNCP[Dab]G-NH2; disulfide 1-6)', 'selectivity hOT/hV1a', 75);

Let's switch to this molecule now.
The measured selectivity hOT/hV1a associated with CCCNCCC[C@H](NC(=O)[C@@H]1CCCN1C(=O)[C@@H]1CSSC[C@H](N)C(=O)N[C@@H](Cc2ccccc2)C(=O)N[C@@H]([C@@H](C)CC)C(=O)N[C@@H](CCC(N)=O)C(=O)N[C@@H](CC(N)=O)C(=O)N1)C(=O)NCC(N)=O [Compound 40] (H-CFIQNCP[Orn(Pr)]G-NH2; disulfide 1-6; N-terminus and C-terminus assumed) reads 88
